Each entry below carries its measured Kd, system: Serine/threonine-protein kinase TBK1 (Homo sapiens). Also: in the data inactive means no Kd found up to 30 µM.
Sequence (Q9UHD2 whole entry): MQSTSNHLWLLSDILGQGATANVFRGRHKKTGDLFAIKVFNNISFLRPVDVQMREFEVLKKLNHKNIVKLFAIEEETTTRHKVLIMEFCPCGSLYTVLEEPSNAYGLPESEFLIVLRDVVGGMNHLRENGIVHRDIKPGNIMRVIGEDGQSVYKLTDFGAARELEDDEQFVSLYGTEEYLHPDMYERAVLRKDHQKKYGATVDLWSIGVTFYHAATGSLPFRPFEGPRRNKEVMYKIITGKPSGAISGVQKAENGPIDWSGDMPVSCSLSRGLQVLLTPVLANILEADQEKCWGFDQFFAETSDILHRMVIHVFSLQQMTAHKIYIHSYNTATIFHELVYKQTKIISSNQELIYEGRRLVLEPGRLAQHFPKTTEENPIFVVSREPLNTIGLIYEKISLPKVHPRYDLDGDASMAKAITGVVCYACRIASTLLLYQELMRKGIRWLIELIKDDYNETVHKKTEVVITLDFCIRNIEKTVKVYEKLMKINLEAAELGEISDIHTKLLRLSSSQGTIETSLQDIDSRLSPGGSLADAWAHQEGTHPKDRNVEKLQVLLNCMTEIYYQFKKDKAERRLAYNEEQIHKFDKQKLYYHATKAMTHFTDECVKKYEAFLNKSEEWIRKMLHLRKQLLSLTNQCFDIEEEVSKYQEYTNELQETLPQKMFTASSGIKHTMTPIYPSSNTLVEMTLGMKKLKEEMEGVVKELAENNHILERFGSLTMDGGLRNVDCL
Calls of active or inactive are those of the source.

What reported Kd corresponds to `COc1ccc(-c2ccc3c(N4CCOC[C@@H]4C)nc(N4CCOC[C@@H]4C)nc3n2)cc1CO` on Serine/threonine-protein kinase TBK1 (Homo sapiens)? > 30 µM (inactive)

What reported Kd corresponds to `CCN1CCN(Cc2ccc(-c3cc4c(N[C@H](C)c5ccccc5)ncnc4[nH]3)cc2)CC1` on Serine/threonine-protein kinase TBK1 (Homo sapiens)? > 30 µM (inactive)

What reported Kd corresponds to `CNC(=O)c1ccc(C)c(-n2c(C)cc(OCc3ccc(F)cc3F)c(Br)c2=O)c1` on Serine/threonine-protein kinase TBK1 (Homo sapiens)? > 30 µM (inactive)

====

# subject of test: Fibroblast growth factor receptor 1 (Homo sapiens)
# Sequence (P11362 whole entry): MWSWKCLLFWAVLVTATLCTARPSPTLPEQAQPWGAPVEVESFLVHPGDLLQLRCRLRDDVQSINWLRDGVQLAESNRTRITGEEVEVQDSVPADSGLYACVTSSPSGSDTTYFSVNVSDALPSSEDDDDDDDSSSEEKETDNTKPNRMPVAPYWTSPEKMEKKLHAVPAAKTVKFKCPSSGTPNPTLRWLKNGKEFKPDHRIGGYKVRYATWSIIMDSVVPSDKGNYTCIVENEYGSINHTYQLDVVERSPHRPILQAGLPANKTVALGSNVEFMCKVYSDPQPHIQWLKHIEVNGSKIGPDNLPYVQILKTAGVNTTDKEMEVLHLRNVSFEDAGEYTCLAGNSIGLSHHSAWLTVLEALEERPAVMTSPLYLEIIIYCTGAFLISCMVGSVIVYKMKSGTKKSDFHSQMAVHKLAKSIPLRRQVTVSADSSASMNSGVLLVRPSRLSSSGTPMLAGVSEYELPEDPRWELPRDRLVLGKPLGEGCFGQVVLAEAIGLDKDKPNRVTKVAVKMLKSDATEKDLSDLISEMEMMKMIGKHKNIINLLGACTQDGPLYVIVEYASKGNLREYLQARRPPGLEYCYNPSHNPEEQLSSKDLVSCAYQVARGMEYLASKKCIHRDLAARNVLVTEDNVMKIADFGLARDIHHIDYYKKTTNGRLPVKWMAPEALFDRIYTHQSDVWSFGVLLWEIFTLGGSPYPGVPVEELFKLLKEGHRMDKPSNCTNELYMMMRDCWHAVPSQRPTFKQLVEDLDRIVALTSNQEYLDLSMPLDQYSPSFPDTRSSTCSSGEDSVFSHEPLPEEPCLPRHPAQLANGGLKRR
Active and inactive are the calls of the source.
API: response.call in y = active, n = inactive

Example entries begin here.
>>> class("COc1cc(N2CCC(N3CCN(C)CC3)CC2)ccc1Nc1ncnc(Nc2ccccc2S(=O)(=O)C(C)C)n1 [ASP-3026]")
"n"
>>> class("N[C@@H]1CCCN(c2c(/C=C3\\SC(=O)NC3=O)cccc2-c2ccccc2)C1")
"n"
>>> class("CNC(=O)c1ccc(-c2cnc3ncc(Cc4ccc5ncccc5c4)n3n2)cc1F [CAPMATINIB]")
"n"
>>> class("Cn1cc(-c2ccc(F)c(C(F)(F)F)c2)nc1C1CCN(c2ncnc3[nH]ncc23)CC1 [LY-2584702]")
"n"
>>> class("O=C(O)[C@]1(Cc2cccc(Nc3nccs3)n2)CC[C@@H](Oc2cccc(Cl)c2F)CC1 [MK-5108]")
"n"

What call does the record list for CCCS(=O)(=O)Nc1ccc(F)c(C(=O)c2c[nH]c3ncc(-c4ccc(Cl)cc4)cc23)c1F [VEMURAFENIB] ? n

What call does the record list for CO[C@H]1C[C@@H]2CC[C@@H](C)[C@@](O)(O2)C(=O)C(=O)N2CCCC[C@H]2C(=O)O[C@H]([C@H](C)C[C@@H]2CC[C@@H](OCCO)[C@H](OC)C2)CC(=O)[C@H](C)/C=C(\C)[C@@H](O)[C@@H](OC)C(=O)[C@H](C)C[C@H](C)/C=C/C=C/C=C/1C [EVEROLIMUS] ? n

What call does the record list for COC(=O)N[C@@H](C)CNc1nccc(-c2cn(C(C)C)nc2-c2cc(Cl)cc(NS(C)(=O)=O)c2F)n1 [ENCORAFENIB] ? n

What call does the record list for Cc1ccc(-n2nc(C(C)(C)C)cc2NC(=O)NCc2cc(F)ccc2Oc2ccc3c(cnn3CCO)c2)cc1 [PEXMETINIB] ? y

What call does the record list for `CN1CC[C@@H](c2c(O)cc(O)c3c(=O)cc(-c4ccccc4Cl)oc23)[C@@H]1CO` ? n

What call does the record list for Cn1ncc(Cl)c1-c1cc(C(=O)N[C@H](CN)Cc2cccc(F)c2)sc1Cl [AFURESERTIB] ? n

What call does the record list for Cc1c(F)cc(C(=O)NC2CC2)cc1-c1ccc(C(=O)NCC(C)(C)C)cn1 [LOSMAPIMOD] ? n

What call does the record list for `Cc1ccc(S(=O)(=O)Nc2nc3ccccc3nc2Nc2ccc3nsnc3c2)cc1` ? n

What call does the record list for O=c1sn(-c2cccc3ccccc23)c(=O)n1Cc1ccccc1 [TIDEGLUSIB] ? n

What call does the record list for CC(=O)Nc1cccc(-n2c(=O)n(C3CC3)c(=O)c3c(Nc4ccc(I)cc4F)n(C)c(=O)c(C)c32)c1 [TRAMETINIB] ? n

What call does the record list for CC[C@H](Nc1ncnc2[nH]cnc12)c1nc2cccc(F)c2c(=O)n1-c1ccccc1 [IDELALISIB] ? n

What call does the record list for COCCNCc1ccc(-c2cc3nccc(Oc4ccc(NC(=S)NC(=O)Cc5ccc(F)cc5)cc4F)c3s2)nc1 [GLESATINIB] ? n

What call does the record list for CCN1CCN(Cc2ccc(-c3cc4c(N[C@H](C)c5ccccc5)ncnc4[nH]3)cc2)CC1 [AEE-788] ? n

What call does the record list for O=C1NC(=O)/C(=C/c2ccc3nccc(-c4ccncc4)c3c2)S1 [GSK-1059615] ? n

Hey, just so you know, these numbers are from ChEMBL document CHEMBL3991601.
